# targetEntity: Protein smoothened (Mus musculus, UniProt P56726)
# Sequence (P56726 whole entry): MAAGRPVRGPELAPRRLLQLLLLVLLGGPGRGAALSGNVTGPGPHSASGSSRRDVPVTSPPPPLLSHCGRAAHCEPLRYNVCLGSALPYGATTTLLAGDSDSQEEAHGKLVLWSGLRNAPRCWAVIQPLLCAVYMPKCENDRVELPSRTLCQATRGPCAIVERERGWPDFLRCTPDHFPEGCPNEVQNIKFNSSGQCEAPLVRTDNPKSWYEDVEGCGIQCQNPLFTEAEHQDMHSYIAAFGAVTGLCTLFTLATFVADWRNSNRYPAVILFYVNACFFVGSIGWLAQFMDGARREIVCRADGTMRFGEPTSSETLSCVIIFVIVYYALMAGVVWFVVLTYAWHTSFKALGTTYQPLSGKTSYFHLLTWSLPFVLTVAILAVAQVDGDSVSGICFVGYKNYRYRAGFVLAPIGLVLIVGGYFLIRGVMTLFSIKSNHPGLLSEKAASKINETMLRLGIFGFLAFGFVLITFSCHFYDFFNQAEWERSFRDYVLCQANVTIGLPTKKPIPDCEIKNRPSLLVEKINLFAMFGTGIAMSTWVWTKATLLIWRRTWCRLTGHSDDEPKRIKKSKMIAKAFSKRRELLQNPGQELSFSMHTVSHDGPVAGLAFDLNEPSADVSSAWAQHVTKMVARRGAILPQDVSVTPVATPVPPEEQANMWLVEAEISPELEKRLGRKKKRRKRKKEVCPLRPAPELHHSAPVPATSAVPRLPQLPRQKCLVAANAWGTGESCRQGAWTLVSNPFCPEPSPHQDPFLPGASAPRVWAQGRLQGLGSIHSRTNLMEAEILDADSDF
# experiment: Antagonist activity at smo in SAG-treated mouse Light2 cells after 48 hrs by renilla luciferase reporter gene assay
# Assay type: functional
# measurementParameters: read-out: IC50
measurementType: IC50

{"inputSmiles": "COc1cc(OC)c2c(=O)c(-c3ccc(OC)c(OCC=C(C)C)c3)coc2c1", "IC50": "2.87 µM"}
{"inputSmiles": "COc1cc(OC)c2c(=O)c(-c3cccc(OCc4ccc(C(F)(F)F)cc4)c3)coc2c1", "IC50": "10.5 µM"}
{"inputSmiles": "COc1cc(OC)c2c(=O)c(-c3ccc(OC)c(OCc4ccc(C#N)cc4)c3)coc2c1", "IC50": "16 µM"}

Hi! Can you tell me IC50 for each of these compounds?
1. COc1cc(OC)c2c(=O)c(-c3ccc(OC)c(OCc4ccc(C(F)(F)F)cc4)c3)coc2c1
2. COc1cc(OC)c2c(=O)c(-c3cccc(O)c3)coc2c1

1. 2.58 µM
2. > 30 µM

The values you see were collected from ChEMBL document CHEMBL4270564.
